- measured target: XSmoCRD (Xenopus laevis)
- experimental details: Fluorescence polarization binding of BODIPY probes to purified XSmoCRD
- assay setup: XSmoCRD (amino acids 35–154), probe 5 nM
reported endpoint: Kd (nM)

a = BODIPY-22-azacholesterol [BODIPY-22-NHC]
b = BODIPY-20(S)-hydroxycholesterol [BODIPY-20(S)-OHC]
Problem: Given the entries a and b , determine which has the lower reported Kd. Kindly state the label of the option you pick.
b

----------
- measured target: XSmo ectodomain (Xenopus laevis, UniProt Q98SW5)
- Sequence (Q98SW5 35-189): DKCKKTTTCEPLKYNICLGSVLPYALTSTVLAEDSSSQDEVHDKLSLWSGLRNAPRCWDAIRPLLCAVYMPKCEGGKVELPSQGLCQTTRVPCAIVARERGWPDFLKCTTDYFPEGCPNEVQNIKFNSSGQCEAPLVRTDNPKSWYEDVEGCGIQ
reported endpoint: Kd (nM)
Record the value in nM, omitting the unit from your answer.

Form: molecule = CC1=C2CC3C(CC=C4C[C@@H](O)CCC43C)C2CCC12O[C@@H]1CC(C)CN(CCNC(=O)CCCCCNC(=O)CCC3=[N+]4C(=Cc5c(C)cc(C)n5[B-]4(F)F)C=C3)C1C2C (stereo partly shown) ; Kd = 434

----------
- measured target: XSmoG84S ectodomain (Xenopus laevis, UniProt Q98SW5, G84S)
- assay setup: read-out: IC50, competition of BODIPY-cyclopamine binding
pIC50: −log10 of the molar value.
reported endpoint: pIC50

a = CCCCCC(C)(O)[C@H]1CC[C@H]2[C@@H]3CC=C4C[C@@H](O)CC[C@]4(C)[C@H]3CC[C@]12C (stereo partly drawn) [20(S)-OHC-Pent]
b = CCCCC[C@@](C)(O)[C@H]1CC[C@H]2[C@@H]3CC=C4C[C@@H](O)CC[C@]4(C)[C@H]3CC[C@@]21C [20(R)-OHC-Pent]
When a and b are compared, which has the higher number for pIC50? To answer, give the label that identifies your chosen option.
b

----------
- measured target: XSmoCRD (Xenopus laevis, UniProt Q98SW5)
- Sequence (Q98SW5 35-154): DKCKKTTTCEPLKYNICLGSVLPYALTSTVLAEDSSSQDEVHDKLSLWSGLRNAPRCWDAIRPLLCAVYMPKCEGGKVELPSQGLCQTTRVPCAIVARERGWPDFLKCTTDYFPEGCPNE
reported endpoint: Kd (nM)
Provide only the numeric value, understood in nM.

The observed Kd for CC1=C2CC3C(CC=C4C[C@@H](O)CCC43C)C2CCC12O[C@@H]1CC(C)CN(CCNC(=O)CCCCCNC(=O)CCC3=[N+]4C(=Cc5c(C)cc(C)n5[B-]4(F)F)C=C3)C1C2C (stereo partly shown) when tested with XSmoCRD (Xenopus laevis, UniProt Q98SW5) stands at 389
